Please go through the items and note down their TGI.
Test system: ACHN renal
assay.comment: NCI tumour cell line growth inhibition, 48 h
*1 amine or outer side, *2 acyl side, *3 side chain or, on linkers, in order; H or OH if unused. Where a SMILES comes first, the peptide text is derived from it. Bridges are numbered along the chain shown (N, C = ends). [ ]: non-standard residue; d: D form. The star is where a group is joined. X34 = O=C(C(CCCCNO[*:3])N[*:1])[*:2]; Fmoc = O=C(OCC1c2ccccc2-c2ccccc21)*

Supply TGI measured with ACHN renal for CSc1nc2c(c(N3CCOCC3)n1)C(O)n1c(nc3ccccc31)S2 (centres undefined) .
> 100 µM

Supply TGI measured with ACHN renal for CN(C)CCNC(=O)Cn1cnc2cccc([N+](=O)[O-])c2c1=O .
> 100 µM

Supply TGI measured with ACHN renal for NC(=O)SCCC(N)C(=O)O (centres undefined) .
> 100 µM

Supply TGI measured with ACHN renal for COC(=O)C(COC(=O)/C=C/c1ccc(OC(C)=O)c(OC(C)=O)c1)NC(=O)/C=C/c1ccc(OC(C)=O)c(OC(C)=O)c1 (centres undefined) .
80.8 µM

Supply TGI measured with ACHN renal for C#CCN(N=O)C(=O)NCCCCC(NC(C)=O)C(=O)NCc1ccccc1 (centres undefined) .
> 100 µM

Supply TGI measured with ACHN renal for CC(=O)OC[C@@]12Cc3ccc(C)c(O)c3[C@]1(C)[C@@H](OC(C)=O)[C@]1(O)[C@H]([C@@H](OC(=O)c3ccccc3)[C@@H](C)[C@H]1OC(C)=O)[C@H]2OC(C)=O .
> 50 µM

Supply TGI measured with ACHN renal for CO/N=C(\COc1ccc2oc(-c3ccccc3)cc(=O)c2c1)c1ccc(OC)cc1 .
51.9 µM

Supply TGI measured with ACHN renal for COc1ccc(C2=C(N)c3ncccc3C2=O)cc1 .
> 10 µM

Supply TGI measured with ACHN renal for Cc1[nH]c(=O)[nH]c1C(=O)c1ccc(-n2ccnc2)cc1 .
> 100 µM

Supply TGI measured with ACHN renal for NC(=O)CNC(=O)C1CCCN1C(=O)C1CCCCNOC(=O)CCC(NC(=O)OCC2c3ccccc3-c3ccccc32)C(=O)NC(Cc2c[nH]c3ccccc23)C(=O)N1 (centres undefined) (Fmoc-EW[X34]PG-NH2; ester 1-3; configuration not given here) .
> 100 µM

Supply TGI measured with ACHN renal for CCOC(=O)c1cc(Br)c(-c2cc(C)no2)[nH]1 .
> 100 µM

Supply TGI measured with ACHN renal for CCOC(=O)C1=C(C)N(Cc2ccc(Cl)cc2Cl)C2(O)C=CC(=O)C3=C(O)c4ccccc4C(=O)C312 (centres undefined) .
18.2 µM

Supply TGI measured with ACHN renal for COc1cc(-c2csc(NC(=O)Nc3ccc(C(F)(F)F)cc3)n2)cc(OC)c1OC .
6.13 µM

Supply TGI measured with ACHN renal for Oc1c(Br)cc(/C=C/c2cccc(/C=C/c3cc(Br)c(O)c(Br)c3)n2)cc1Br .
52.3 µM

Supply TGI measured with ACHN renal for C=C1CC2CC(O)CC(C1)C2 (centres undefined) .
> 100 µM

Supply TGI measured with ACHN renal for CC(=O)c1c(CO[N+](=O)[O-])n([O-])c2ccccc2[n+]1=O .
> 100 µM

Supply TGI measured with ACHN renal for CCOC(OCC)N1C(=O)C2(C(OCC)OCC)CC3C(OC(=O)N3N)c3cccc1c32 (centres undefined) .
> 100 µM

Supply TGI measured with ACHN renal for O=C(/C=C/C12c3ccccc3C(c3ccccc31)C1C(=O)NC(=O)C12)c1ccc(F)cc1 (centres undefined) .
6.18 µM

Supply TGI measured with ACHN renal for CC(C)Oc1cccc(N2C(=NCCc3c[nH]c4ccccc34)Nc3ccncc3S2(=O)=O)c1 .
> 100 µM

---

Test system: KM12 colon
assay.comment: NCI tumour cell line growth inhibition, 48 h
quantity.measured: GI50

Input Cc1cc(-c2ccccn2)cc(C)c1/C=C/c1cncc(-c2nn[nH]n2)c1 , output reported GI50.
> 25 µM

Input N#Cc1c(N)nc(N2CCOCC2)c(C#N)c1-c1ccccn1 , output reported GI50.
> 100 µM

Input CCOC(=O)C1=C(C)N(Cc2ccc(Cl)cc2Cl)C2(O)C=CC(=O)C3=C(O)c4ccccc4C(=O)C312 (stereo not drawn) , output reported GI50.
4.02 µM

---

Please go through the items and note down their GI50.
System: PC-3 prostate
assay.comment: NCI tumour cell line growth inhibition, 48 h

Supply GI50 measured with PC-3 prostate for C/C(=C\c1cc(C(F)(F)F)n(-c2ccc(N)cc2)n1)[C@@H]1C[C@@H]2O[C@]2(C)CCC[C@H](C)[C@H](O)[C@@H](C)C(=O)C(C)(C)[C@@H](O)CC(=O)O1 .
0.0297 µM

Supply GI50 measured with PC-3 prostate for Clc1ccccc1CNc1c2ccccc2nc2ccccc12 .
2.24 µM

Supply GI50 measured with PC-3 prostate for NS(=O)(=O)NCCNc1nonc1C(=Nc1ccc(F)c(Br)c1)NO .
31.8 µM

Supply GI50 measured with PC-3 prostate for O=C(Nc1cccc(Cl)c1)c1cccc(NC2=C(Cl)C(=O)N(Cc3ccccc3)C2=O)c1 .
21.9 µM

Supply GI50 measured with PC-3 prostate for CCOC(=O)C#Cc1c(C(=O)OCC)nnn1Cc1ccc([N+](=O)[O-])cc1 .
10.2 µM

Supply GI50 measured with PC-3 prostate for CC1=C(C(=O)Nc2cc(Cl)c3[nH]ncc3c2)C(c2ccc(C(F)(F)F)cc2)CC(=O)N1 (stereo not drawn) .
> 25 µM

Supply GI50 measured with PC-3 prostate for CCOC(=O)c1cc(-c2ccccc2)[nH]c1N/N=C/c1ccc(Cl)cc1 .
21.8 µM

Supply GI50 measured with PC-3 prostate for CCCCCCCCCNC(=O)/C=C/c1ccc(O)c(O)c1 .
3.61 µM

Supply GI50 measured with PC-3 prostate for Oc1ccc(C2c3ccccc3Oc3ccccc32)c2cccnc12 .
1.9 µM

Supply GI50 measured with PC-3 prostate for O=C(N/N=C/c1ccc(O)cc1O)c1cccc(Nc2ccnc(C(F)(F)F)c2)c1 .
3.01 µM

Supply GI50 measured with PC-3 prostate for C=C(CO)[C@@H]1CC[C@]2(COC3CCCCO3)CC[C@]3(C)[C@H](CC[C@@H]4[C@@]5(C)C=C(C=O)C(=O)C(C)(C)[C@@H]5CC[C@]43C)[C@@H]12 (stereo partly drawn) .
0.237 µM

Supply GI50 measured with PC-3 prostate for CC(=O)O[C@H](C[C@H](C(C)C)N(C)C(=O)[C@@H](NC(=O)[C@H]1CCCN1C)C(C)C)c1nc(C(=O)N[C@@H](Cc2ccccc2)C[C@H](C)C(=O)O)c(C)s1 .
< 0.00167 µM

Supply GI50 measured with PC-3 prostate for N#Cc1cc(S(=O)(=O)Nc2nnc(-c3ccccc3)c(-c3ccccc3)n2)c(SCc2ccccc2)cc1Cl .
20 µM

Supply GI50 measured with PC-3 prostate for CCc1ccc(C(=Nc2ccc(N(C)C(=O)CN3CCN(C)CC3)cc2)c2c(O)[nH]c3ccc(C(=O)OC)cc23)cc1 .
0.292 µM

Supply GI50 measured with PC-3 prostate for CC(CN(C)C)Oc1ccccc1NC1=C(Cl)C(=O)C(Nc2ccccc2OC(C)CN(C)C)=C(Cl)C1=O (stereo not drawn) .
1.33 µM

Supply GI50 measured with PC-3 prostate for NS(=O)(=O)c1ccc(N(/C=C/C(=O)C(F)(F)F)Cc2ccc(Cl)cc2)cc1 .
19.6 µM

Supply GI50 measured with PC-3 prostate for COc1ccc2c(c1)C(=O)/C(=C/c1ccc([N+](=O)[O-])o1)O2 .
1.91 µM

Supply GI50 measured with PC-3 prostate for Cc1cn2c(/C=N/N=C(N)N)c(-c3ccccn3)nc2s1 .
15.6 µM

---

Test system: LOX IMVI melanoma
assay.comment: NCI tumour cell line growth inhibition, 48 h
Where a SMILES comes first, the peptide text is derived from it. [ ]: non-standard residue; d: D form. The star is where a group is joined. dTle = CC(C)(C)[C@@H](N)C(=O)O; 4Abz = Nc1ccc(C(=O)O)cc1; NHOH = ON*
quantity.measured: GI50

Input CCCCCCCCCNC(=O)/C=C/c1ccc(O)c(O)c1 , output reported GI50.
11 µM

Input O=[N+]([O-])c1cc(C(F)(F)F)ccc1Sc1ccc(C(F)(F)F)cc1[N+](=O)[O-] , output reported GI50.
3.37 µM

Input O=C(Nc1cccc(-c2ccc(Cl)c(C(F)(F)F)c2)c1)C1CCN(Cc2cccc3cccnc23)CC1 , output reported GI50.
1.5 µM

Input CC1(N)CCN(c2cnc(-c3cccc(Cl)c3Cl)c(N)n2)CC1 , output reported GI50.
15.3 µM

Input O=C(O)c1c(=O)cccc2ssc12 , output reported GI50.
1.78 µM

Input COC(=O)c1cc2c3ccccc3[nH]c2c2sccc12 , output reported GI50.
5.68 µM

Input Clc1ccccc1CNc1c2ccccc2nc2ccccc12 , output reported GI50.
1.57 µM

Input O=C(Nc1cccc(Cl)c1)c1cccc(NC2=C(Cl)C(=O)N(Cc3ccccc3)C2=O)c1 , output reported GI50.
28.3 µM

Input CC(=[N-])N1CCC[C@@H](Nc2c3ccccc3nc3ccccc23)C1.[Cl][Pt].[NH-]CCC[NH-] , output reported GI50.
2.25 µM

Input O=C(NO)[C@@H](Cc1ccccc1)NS(=O)(=O)c1ccc(-c2ccccc2)cc1 , output reported GI50.
11.9 µM

Input Cc1ccc(NC(=O)CSc2nnc3n(Cc4ccccc4)c(=O)c4c(C)c(C(N)=O)sc4n23)cc1 , output reported GI50.
> 100 µM

Input C[C@@H](NC(=O)[C@H](NC(=O)[C@@H]1CCCN1C(=O)CNC(=O)c1ccc(N)cc1)C(C)(C)C)C(=O)NO (H-[4Abz]GP[dTle][dA]-{NHOH}) , output reported GI50.
> 100 µM

Input N#Cc1cc(S(=O)(=O)Nc2nnc(-c3ccccc3)c(-c3ccccc3)n2)c(SCc2ccccc2)cc1Cl , output reported GI50.
16.8 µM

Input NS(=O)(=O)c1ccc(N(/C=C/C(=O)C(F)(F)F)Cc2ccc(Cl)cc2)cc1 , output reported GI50.
21.8 µM

Input CCCN(CCC)c1ccc(/C=N/NC(=O)c2cccnc2)c(OC)c1 , output reported GI50.
23.6 µM
